measureName: melting point

[[record]]
compound = "FC(F)(F)c1cc(Cl)c(-n2cc(C3CC3(Br)Br)c(C=C(Br)Br)n2)c(Cl)c1 (stereo not shown) [Example 6]"
reading = "106 to 107 °C"

[[record]]
compound = "Nc1nn(-c2c(Cl)cc(C(F)(F)F)cc2Cl)cc1C1CC1(Br)Br (stereo not shown) [Example 8]"
reading = "124.9 to 126 °C"

[[record]]
compound = "C=C(C)c1nn(-c2c(Cl)cc(C(F)(F)F)cc2Cl)cc1C1CC1(Br)Br (stereo not shown) [Example 1]"
reading = "86.5 to 88.2 °C"

[[record]]
compound = "NC(=O)c1nn(-c2c(Cl)cc(C(F)(F)F)cc2Cl)cc1C1CC1(Br)Br (stereo not shown) [Example 7]"
reading = "186.2 to 187.3 °C"

